biological target: mu opioid receptor (Homo sapiens (Human), UniProt P35372)
pIC50: −log10 of the molar value.
READOUT NAME: pIC50

[[record]]
compound = "COCCOCCOCCO[C@H]1CC[C@@]2(O)[C@H]3Cc4ccc(O)c5c4[C@@]2(CCN3CC2CCC2)[C@H]1O5 [6-O-mPEG3-Nalbuphine, 6-O-mPEG3-nalbuphine]"
readout_name = "pIC50"
recorded_number = 6.40


* * *

target: mu opioid receptor (Homo sapiens (Human)); type: binding; conditions: mean IC50 ratio, ↓ = lower affinity
As shown below, each of these compounds has a reported Fold Change vs. Hydrocodone value.
READOUT NAME: Fold Change vs. Hydrocodone

[[record]]
compound = "COCCOCCOCCOCCOCCOCCO[C@H]1CC[C@H]2[C@H]3Cc4ccc(OC)c5c4[C@@]2(CCN3C)[C@H]1O5 [α-6-mPEG6-O-Hydrocodonol]"
readout_name = "Fold Change vs. Hydrocodone"
result = "11.12 ↓"

[[record]]
compound = "COCCOCCOCCOCCOCCOCCOCCOCCO[C@H]1CC[C@H]2[C@H]3Cc4ccc(OC)c5c4[C@@]2(CCN3C)[C@H]1O5 [α-6-mPEG8-O-Hydrocodonol]"
readout_name = "Fold Change vs. Hydrocodone"
result = "40.10 ↓"

[[record]]
compound = "COCCOCCO[C@H]1CC[C@H]2[C@H]3Cc4ccc(OC)c5c4[C@@]2(CCN3C)[C@H]1O5 [α-6-mPEG2-O-Hydrocodonol]"
readout_name = "Fold Change vs. Hydrocodone"
result = "5.84 ↓"

[[record]]
compound = "COc1ccc2c3c1O[C@H]1[C@@H](O)CC[C@H]4[C@@H](C2)N(C)CC[C@@]341 [α-6-Hydrocodonol, 6-hydrocodonol, reference compound]"
readout_name = "Fold Change vs. Hydrocodone"
result = "7.50 ↓"

